# system.tested: hERG (KCNH2) (Homo sapiens, UniProt Q12809)
# Sequence (Q12809 whole entry): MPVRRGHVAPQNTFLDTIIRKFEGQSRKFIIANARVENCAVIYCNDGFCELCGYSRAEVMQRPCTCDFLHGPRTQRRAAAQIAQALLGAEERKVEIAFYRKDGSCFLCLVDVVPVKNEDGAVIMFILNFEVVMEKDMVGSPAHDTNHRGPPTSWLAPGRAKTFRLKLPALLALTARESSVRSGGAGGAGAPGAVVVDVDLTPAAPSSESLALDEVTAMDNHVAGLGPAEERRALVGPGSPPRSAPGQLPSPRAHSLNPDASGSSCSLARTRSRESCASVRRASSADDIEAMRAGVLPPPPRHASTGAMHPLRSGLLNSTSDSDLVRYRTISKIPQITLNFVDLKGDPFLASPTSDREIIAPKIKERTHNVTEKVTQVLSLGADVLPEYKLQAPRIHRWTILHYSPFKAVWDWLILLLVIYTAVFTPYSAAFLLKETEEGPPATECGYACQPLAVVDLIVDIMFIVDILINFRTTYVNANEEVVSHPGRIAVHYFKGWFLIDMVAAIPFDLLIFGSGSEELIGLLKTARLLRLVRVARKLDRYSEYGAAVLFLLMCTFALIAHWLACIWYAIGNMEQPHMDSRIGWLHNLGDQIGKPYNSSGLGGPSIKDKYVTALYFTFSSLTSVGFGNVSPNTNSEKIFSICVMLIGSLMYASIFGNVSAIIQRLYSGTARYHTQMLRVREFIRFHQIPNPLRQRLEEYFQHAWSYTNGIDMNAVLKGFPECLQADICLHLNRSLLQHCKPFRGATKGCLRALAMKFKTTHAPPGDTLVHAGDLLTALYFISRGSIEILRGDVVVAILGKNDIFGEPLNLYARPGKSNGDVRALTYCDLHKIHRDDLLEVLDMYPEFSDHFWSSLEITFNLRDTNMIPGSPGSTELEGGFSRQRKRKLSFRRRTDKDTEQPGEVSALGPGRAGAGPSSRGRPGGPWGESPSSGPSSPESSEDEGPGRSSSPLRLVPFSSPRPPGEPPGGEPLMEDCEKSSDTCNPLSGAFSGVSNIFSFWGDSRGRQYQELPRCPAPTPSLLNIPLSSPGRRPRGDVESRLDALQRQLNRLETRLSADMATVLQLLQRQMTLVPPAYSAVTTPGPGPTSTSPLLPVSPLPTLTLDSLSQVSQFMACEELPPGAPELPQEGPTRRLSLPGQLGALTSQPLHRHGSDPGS
# protocol.summary: Inhibition of human ERG at 1 uM by patch clamp technique
# key: entry, value: inhibition at 1 µM
assay.metric: inhibition at 1 µM (%)

> print(dat)
                                smiles.input  data.value
 1  COc1cccc(S(=O)(=O)N2CCC3=Cc4c(cnn4-c4ccc(F)cc4)C[C@]3(C(=O)c3ccccn3)C2)c1          24
 2  Cc1ccccc1S(=O)(=O)N1CCC2=Cc3c(cnn3-c3ccc(F)cc3)C[C@]2(C(=O)c2ccccn2)C1          26
 3  Cc1ccc(S(=O)(=O)N2CCC3=Cc4c(cnn4-c4ccc(F)cc4)C[C@]3(C(=O)c3ccccn3)C2)cc1          34
 4  O=C(c1ccccn1)[C@]12Cc3cnn(-c4ccc(F)cc4)c3C=C1CCN(S(=O)(=O)c1ccc(F)c(F)c1)C2          10
 5  O=C(c1ccccn1)[C@]12Cc3cnn(-c4ccc(F)cc4)c3C=C1CCN(S(=O)(=O)c1ccc(C(F)(F)F)c(F)c1)C2           8
 6  O=C(c1ccccn1)[C@]12Cc3cnn(-c4ccc(F)cc4)c3C=C1CCN(S(=O)(=O)c1cccc(Cl)c1)C2          14
 7  Cc1cccc(S(=O)(=O)N2CCC3=Cc4c(cnn4-c4ccc(F)cc4)C[C@]3(C(=O)c3ccccn3)C2)c1          17
 8  O=C(c1ccccn1)[C@]12Cc3cnn(-c4ccc(F)cc4)c3C=C1CCN(S(=O)(=O)c1ccc(Cl)c(Cl)c1)C2           7
 9  N#Cc1cccc(S(=O)(=O)N2CCC3=Cc4c(cnn4-c4ccc(F)cc4)C[C@]3(C(=O)c3ccccn3)C2)c1          27
10  O=C(c1ccccn1)[C@]12Cc3cnn(-c4ccc(F)cc4)c3C=C1CCN(S(=O)(=O)c1ccc(F)c(C(F)(F)F)c1)C2          16

====

# system.tested: Glucocorticoid receptor (Rattus norvegicus)
# protocol.summary: Agonist activity at glucocorticoid receptor in rat primary hepatocytes assessed as inhibition of glucocorticoid-induced TAT activity
pEC50: −log10 of the molar value.
assay.metric: pEC50

> print(dat)
                               smiles.input  data.value
1  O=C(c1ccccn1)[C@]12Cc3cnn(-c4ccc(F)cc4)c3C=C1CCN(S(=O)(=O)c1ccc(C(F)(F)F)cc1)C2        6.55

====

# key: entry, value: Ki
# system.tested: Glucocorticoid receptor (Rattus norvegicus, UniProt P06536)
# Sequence (P06536 whole entry): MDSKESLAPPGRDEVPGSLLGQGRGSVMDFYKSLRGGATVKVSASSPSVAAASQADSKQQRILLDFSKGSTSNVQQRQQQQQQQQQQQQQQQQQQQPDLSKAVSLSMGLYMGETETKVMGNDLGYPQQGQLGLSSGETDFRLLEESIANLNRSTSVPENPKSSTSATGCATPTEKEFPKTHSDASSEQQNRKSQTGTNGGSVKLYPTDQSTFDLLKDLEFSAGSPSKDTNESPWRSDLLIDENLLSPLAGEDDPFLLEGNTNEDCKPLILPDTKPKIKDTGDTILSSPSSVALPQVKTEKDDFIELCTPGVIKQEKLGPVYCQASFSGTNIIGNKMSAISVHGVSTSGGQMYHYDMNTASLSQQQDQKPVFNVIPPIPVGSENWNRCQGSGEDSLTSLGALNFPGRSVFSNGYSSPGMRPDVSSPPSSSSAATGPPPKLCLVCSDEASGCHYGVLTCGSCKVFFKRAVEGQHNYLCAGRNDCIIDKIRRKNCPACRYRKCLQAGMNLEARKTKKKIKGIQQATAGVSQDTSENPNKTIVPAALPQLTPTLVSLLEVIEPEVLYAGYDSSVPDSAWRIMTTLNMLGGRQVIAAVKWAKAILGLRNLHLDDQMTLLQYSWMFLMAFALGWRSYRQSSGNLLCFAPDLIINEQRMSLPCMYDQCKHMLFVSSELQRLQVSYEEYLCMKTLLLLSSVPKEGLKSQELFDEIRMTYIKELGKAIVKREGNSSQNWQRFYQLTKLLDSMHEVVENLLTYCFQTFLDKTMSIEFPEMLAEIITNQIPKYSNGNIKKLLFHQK
# protocol.summary: Antagonist activity at glucocorticoid receptor in rat primary hepatocytes assessed as inhibition of glucocorticoid-induced TAT activity
# Format: cell-based, Hepatocyte
assay.metric: Ki (nM)

> print(dat)
                                   compound                             system.tested  data.value
1  O=C(c1ccccn1)[C@]12Cc3cnn(-c4ccc(F)cc4)c3C=C1CCN(S(=O)(=O)c1ccc(C(F)(F)F)cc1)C2 [DAZUCORILANT]  Glucocorticoid receptor (Rattus norvegicus, UniProt P06536)          13
2  O=C(c1ccccn1)[C@]12Cc3cnn(-c4ccc(F)cc4)c3C=C1CCN(S(=O)(=O)c1ccc(Cl)c(Cl)c1)C2  Glucocorticoid receptor (Rattus norvegicus, UniProt P06536)         150

Source listed as ChEMBL document CHEMBL3734698.
